- Tested on: Homo sapiens
- METHOD NOTES: Inhibition of LPS-induced NF-kappaB (unknown origin) transactivation expressed in human SW480 cells at 10 uM administered 1 hr after LPS stimulation measured after 6 hrs by luciferase reporter gene assay relative to control
- Type: cell-based
Peptide text beside a SMILES is read from it. * marks the point of attachment. Cbz = O=C(OCc1ccccc1)*
Classify as follows. Reported inhibition greater than or equal to 7%: class 1. Reported inhibition below: class 0.

CC1(C)C=Cc2c(ccc(-c3oc4cc(O)ccc4c3C=O)c2O)O1 | class 1
CC(C)C[C@@H](C=O)NC(=O)[C@H](CC(C)C)NC(=O)[C@H](CC(C)C)NC(=O)OCc1ccccc1 (Cbz-Leu-Leu-Leu-aldehyde) | class 1
CC(C)=CCc1cc([C@H]2Oc3c(ccc4c3C=CC(C)(C)O4)C(=O)[C@@H]2O)ccc1O | class 1
CC1(C)C=Cc2c(ccc3cc(-c4ccc(O)cc4O)c(=O)oc23)O1 | class 0
CC(C)=CCc1cc([C@@H]2CC(=O)c3ccc(O)cc3O2)ccc1O | class 1
CC(C)=CCc1cc(C[C@@H](O)C(=O)c2ccc(O)c(CC=C(C)C)c2O)ccc1O | class 1
CC(C)=CCc1cc([C@@H]2CC(=O)c3ccc(O)c(CC=C(C)C)c3O2)ccc1O | class 1
COc1ccc(-c2coc3cc(O)ccc3c2=O)cc1 | class 0
CC1(C)C=Cc2c(ccc3c2O[C@H]2c4ccc(O)cc4OC[C@@H]32)O1 | class 0
CC(C)=CCc1c(O)ccc(C(=O)/C=C/c2ccc(O)cc2)c1O | class 1

Prompt: hey, is inhibition for this one >= 7%? `COc1ccc([C@@H]2COc3c(ccc4c3C=CC(C)(C)O4)C2)c(O)c1`
Response: class 0

Prompt: Determine whether measured inhibition meets or exceeds 7% for `O=C1C[C@@H](c2ccc(O)cc2)Oc2cc(O)cc(O)c21`
Response: class 0

Prompt: Decide: is the reported value of inhibition for `COc1ccc([C@@H]2COc3c(ccc(O)c3CC=C(C)C)C2)c(O)c1O` equal to or greater than 7%?
Response: class 1

Prompt: Has `CC1(C)C=Cc2c(ccc3c2OC[C@@H](c2ccc(O)cc2O)C3)O1` a recorded inhibition greater than or equal to 7%?
Response: class 0

Prompt: Is reported inhibition greater than or equal to 7% here: `CC1(C)C=Cc2c(cc(O)c3c(=O)c(-c4ccc(O)cc4)coc23)O1`
Response: class 1

Prompt: Evaluate `CC1(C)C=Cc2c(O)ccc(-c3cc4ccc(O)cc4o3)c2O1` : inhibition at minimum 7%?
Response: class 1

Prompt: For this compound, is measured inhibition 7% or higher? `CC1(C)C=Cc2c(ccc(-c3cc4ccc(O)cc4o3)c2O)O1`
Response: class 1
